system: MS2 coat protein; test: apparent KD of MS2 coat protein; designed switch direction (-1 OFF switch, 1 ON switch): -1; higher = weaker reporter binding; details: input ligand: FMN 200 uM
READOUT KIND: apparent KD of MS2 coat protein
Phrase the answer as number then unit, nothing more needed.

Please review the following examples before continuing.
| QUERY SEQUENCE | apparent KD of MS2 coat protein |
| --- | --- |
| GUAGUUCGAGUUAGGAUAUGAUUAAAAUUCGGAUAUCAGAAGGAACUUGAGGAUCACCCAAGUAUAGAUGAUUC [JR_BMEx4_Sub058] (Eterna round: R97, puzzle: Brourd's mod of Exclusion 4) | 91.6 nM |
| UACAUGAGGAUCACCCAUGUUUUGUCGUGUAUGGUAUUUAUCUAGGAUAUCGAUUUAUUUAACCACGAGAAGGAGAGUAUCAAU [MOD Solution 21 by JMF] (Eterna round: R96, puzzle: Exclusion NG 3) | 46.4 nM |
| UAAUUAAAUGUAGGAUAUCUGCACGAUUAGUGCAGAGAAGGACAUGAGGAUCACCCAUGUAGAUCAAAUUAAAUUAAUUUAAUU [ENG1/5-D1] (Eterna round: R96, puzzle: Exclusion NG 1) | 92.2 nM |

Below: the item to evaluate.
Entry GUGAGCAGACGGAGAUCCUACAUGAGGAUCACCCAUGUCUCACUAGCUUUUUGCUCGUCUUAUCCUCCUCUGUUCUC [Elimod 25 - Jieux - Sensor, turn-off variant 1] (Eterna round: R97, puzzle: Sensor, turn-off variant 1) ; apparent KD of MS2 coat protein = 176 nM

---

system: MS2 coat protein; assay: apparent KD of MS2 coat protein; designed switch direction (-1 OFF switch, 1 ON switch): -1; higher = weaker reporter binding; settings: Eterna round: R95; input ligand: microRNA oligo, concentration not stated
# label = Condition met if apparent KD of MS2 coat protein >= 50 nM else Condition not met

For this sequence, is measured apparent KD of MS2 coat protein 50 nM or higher? UGUACUAACACGAGAGUGUUAGUACUAUAAGCUUGUGUUACAUGAGGAUCACCCAUGUCCUCAUAAGCUCGUCUUGA [Mat - Sensor v3 - Turn-off var 2 - D94] (puzzle: Sensor v3, turn-off variant 2) Condition met

For this sequence, is measured apparent KD of MS2 coat protein 50 nM or higher? AUUAUGUAAGGAUAUCUUACAUGUGACUUCGGUCACUGUUAAGAGAAGGUACAUGAGGAUCACCCAUGUAGAAC [Ex4-3: 47] (puzzle: Exclusion 4) Condition not met

---

tested on: MS2 coat protein; test: apparent KD of MS2 coat protein; designed switch direction (-1 OFF switch, 1 ON switch): -1; higher = weaker reporter binding; details: Eterna round: R95; input ligand: microRNA oligo, concentration not stated
# label = Fulfilled if apparent KD of MS2 coat protein >= 60 nM else Not fulfilled

For this sequence, is measured apparent KD of MS2 coat protein 60 nM or higher? AAAAAACAAGGAUAUACGUAUGAGGAUUGUCUUAAUUUUUGACAUGAGGAUCACCCAUGUAGAAGGUGUUAAAA [JR_Exclusion2_Sub015] (puzzle: Exclusion 2) Fulfilled

---

test system: MS2 coat protein; assay: apparent KD of MS2 coat protein; higher = weaker reporter binding; conditions: Eterna round: R107; input ligand: theophylline 2 mM
READOUT KIND: apparent KD of MS2 coat protein (µM)
Dear colleague, please return just the value in µM, with no unit written.

Please review the following examples before continuing.
| QUERY SEQUENCE | READING UNIT | READOUT VALUE |
| --- | --- | --- |
| AAUCGGGAUGGUCAAGGGUAUGCUAUAGAUACCAGUGCAGAGAAACACCCUUGGCAGCUGUGGAACAUGAGGAUCACCCAUGUAG [Theo A Ex t4] | µM | 0.0173 |
| AUAAUAAGGUGAUCCUAAGUCGUACCGUAACGAGGACCGGUACGGCCGCCACUCGAACAUGAGGAUCACCCAUGUAUGUACGACA [M'-T'-T-MS2-T'' - Design 6] | µM | 0.17 |

Below: the item to evaluate.
Entry GCACAUGAGGAUCACCCAUGUACAACUGAAGGAGCGAGACAGAACUCAGGUAGGUCGCAGACUGCACAAUUGCGGACGACAUGGG [Exclusion Arginine A GF21] ; apparent KD of MS2 coat protein = 0.0409

---

test system: MS2 coat protein; experiment: apparent KD of MS2 coat protein; designed switch direction (-1 OFF switch, 1 ON switch): 1; higher = weaker reporter binding; settings: input ligand: microRNA oligo, concentration not stated
Reported apparent KD of MS2 coat protein is given for each of the following sequences.
Dear colleague, please return just the value in µM, with no unit written.

| QUERY SEQUENCE | READOUT VALUE |
| --- | --- |
| GAAGACAUAGUUCAGGAUAUAGGAAUAGUCACAUGAGGAUCACCCAUGUGCAUUUAUAUGCGCACUUAGAAGGGAGGUAGUUAUC [SameState2 Malc#23] (Eterna round: R96, puzzle: Same State 2) | 0.0294 |
| AUUAUUAAUGCAGGAUAUGAUUAACAUGAGGAUCACCCAUGUGGUGUUGUGAGUAAGGAGAGUGAUCAGAAGGGCAUAUUUUUU [JMF's solution 9] (Eterna round: R96, puzzle: Same State NG 2) | 0.407 |
| UGUUAGUAGACAGGAUAUUGAAUGUUAAGUAUUAACAUGAGGAUCACCCAUGUAUUUGAUUGGUACAAGAAGGGUCAAGUUUGU [JR_SSNG2_Sub013] (Eterna round: R96, puzzle: Same State NG 2) | 0.191 |
| UCUAUUGUGGUAGGAUAUCUAGGAUAUGGGAAGAGCUAAGCUUGGAAGUCACUUCACCCAGAAGGAGAGAAGGACCAGAGACUU [pwkr ssNG2 2FMN + F9.7] (Eterna round: R96, puzzle: Same State NG 2) | 0.778 |
| UGCCUGAGUCGAGGAUAUUAUGGAUCCUCUAAUACAUGAGGAUCACCCAUGUAAUUAAUUAUACAUGAGAAGGUGACUCAGGCU [SSNG2/12-B1] (Eterna round: R96, puzzle: Same State NG 2) | 0.293 |

Entry AGGCUCGUGCUAGGAUAUCUAGGAUAUGGACGAGGAUUACCCGAGCAGCAUUAGCGCACCAGAGGAGAGAAGGAGCGACAUGCG [pwkr ssNG2 2F5 2FMN.11] (Eterna round: R96, puzzle: Same State NG 2) ; apparent KD of MS2 coat protein = 0.00491

Entry AGCUAAAACGAAGGAUAUACAAACAUGAGGAUCACCCAUGUAUACAUGGUUUGUUGUGACCACAUGUAGAAGGUCGUACUAACA [SameState NG2 #18] (Eterna round: R96, puzzle: Same State NG 2) ; apparent KD of MS2 coat protein = 0.405

Entry GUGCAAAUCAUAGGAUAUGGGCGGGAAUGCCGUCCAGAAGGAUGAACAUGAGGAUCACCCAUGUCCAGCCGCAAAUACGCGGCC [Sodirien] (Eterna round: R96, puzzle: Same State NG 1) ; apparent KD of MS2 coat protein = 0.0951

Entry GUACAGAUUAUAGGAUAUCACGUCGAAUAGACGUGAGAAGGAUAAUCACACAUGAAUAUUAAUACAUGAGGAUCACCCAUGUAC [SSNG1/17-A1] (Eterna round: R96, puzzle: Same State NG 1) ; apparent KD of MS2 coat protein = 0.0129

Entry GAGUGGUAGGGAGGAUAUGCAUUGUUAUUAAAUGCAGAAGGUUUUAACAUGAGGAUCACCCAUGUAGGACUAUUCCUGUGUUUC [Parity 67 - Jieux - Same State NG 1] (Eterna round: R96, puzzle: Same State NG 1) ; apparent KD of MS2 coat protein = 0.0127

Entry UAGUGCAUUAGAGGAUAUUCUUACGGAAACGGUAAGACAUGAGGAUCACCCAUGUUGUCACAUGGGAAGAAGGCUGAUGUGCUA [Omei SS(NG)2 Bv5] (Eterna round: R96, puzzle: Same State NG 2) ; apparent KD of MS2 coat protein = 0.104

Entry ACAUGAGACUUAGGAUAUGUUGUACCUACAUGUGACAUGAGGAUCACCCAUGUGGUAAGUAUGAGGCAGAAGGAAGAGAUAUGU [Equivalence 39 - Jieux - Same State NG 2] (Eterna round: R96, puzzle: Same State NG 2) ; apparent KD of MS2 coat protein = 0.0459

Entry ACAUGAGACGGAGGAUAUUUUGUACCUACAUGUGACAUGAGGAUCACCCAUGUGGUAAGUAUGAGAAAGAAGGCCGAGAUAUGU [Equivalence 19 - Jieux - Same State NG 2] (Eterna round: R96, puzzle: Same State NG 2) ; apparent KD of MS2 coat protein = 0.0177

---

system: MS2 coat protein; assay: apparent KD of MS2 coat protein; designed switch direction (-1 OFF switch, 1 ON switch): -1; higher = weaker reporter binding; conditions: input ligand: none
# label = label 1 if apparent KD of MS2 coat protein >= 20 nM else label 0

Check out these entries, answers already filled in.
| QUERY SEQUENCE | ASSAYED SYSTEM | ASSIGNED LABEL |
| --- | --- | --- |
| AUGGGUCGGGAGGAUAUUCGGGCUCAUGGGCUUGGAGAAGGCUCGACAUGAGGAUCACCCAUGUAAGUGUUCUU [-25, -23.1 kcal, A 22%] (Eterna round: R97, puzzle: Exclusion 6) | MS2 coat protein | label 1 |
| AAGUACCGGUGAGGAUAUUUUUAAUAGAGCUUUAUGAUAUACAUGAGGAUCACCCAUGUUACGUUAAAGAAGGCAUCGGAUUAA [Mat - Exclusion NG 2 - Mod of JL - D97] (Eterna round: R96, puzzle: Exclusion NG 2) | MS2 coat protein | label 0 |
| GAACUGAAGCUUUGCUUUAGUCGUACAUGAGGAUCACCCAUGUAGGAUAUGGUAGGCUUUGCUUACUAGAAGGACAGAGUGAUC [Mat - Exclusion NG 3 - Mod of JL - D68] (Eterna round: R96, puzzle: Exclusion NG 3) | MS2 coat protein | label 1 |
| GACAUUUGAGGAUAUGCAGCUAGCUUCGUUUUCAAAUCGAGACAUGAGGAUCACCCAUGUAGAAGGCAAGGUCG [Eternabot (L1) Solution 88] (Eterna round: R97, puzzle: Exclusion 2) | MS2 coat protein | label 1 |
| UGCAGACGAGGAUAUAGAUUUAGAUACAUGAGGAUCACCCAUGUAUAGAUGUAUUUAGAUUUAGAAGGCGUCUGCU [E5/13-A4] (Eterna round: R97, puzzle: Exclusion 5) | MS2 coat protein | label 1 |
| GUGUGUUGAUUAGGAUAUGCUCUAAGCAAUCGGGCAGAAGGAGUUAGACAUGAGGAUCACCCAUGUAAAUAUCGGAUCCCAACG [Eternabot solution 17] (Eterna round: R96, puzzle: Exclusion NG 1) | MS2 coat protein | label 0 |
| ACAUGAGGAUCACCCAUGUGCACGUAAUGGCUCAUGUAGAGUGAGGAUAUGUGUGACGAACGAGCACAGAAGGCACAAGACUGG [Deportation 13 - Jieux - Exclusion NG 3] (Eterna round: R96, puzzle: Exclusion NG 3) | MS2 coat protein | label 1 |
| CAAUUCUGAGGAUAUGUGCCUCUGGACAUGAGGAUCACCCAUGUGGAGGCUGUAUGGGAGGCAGAAGGUAGAGAUC [Eternabot (L1) Solution 7] (Eterna round: R97, puzzle: Exclusion 5) | MS2 coat protein | label 0 |
| GCUGGUCGAGGAUAUGCAAUCGUGCUUCGGCACGUAAGGUCACAUGAGGAUCACCCAUGUAGAAGGCGACCAGC [E2/4-A1] (Eterna round: R97, puzzle: Exclusion 2) | MS2 coat protein | label 0 |
| GGACAUGCAGGAUAUGUAAAAUUUGACAUGAGGAUCACCCAUGUAGAUCCUGAAUUUCCUGCAGAAGGGCAUGUCC [Mat - Exclusion 5 - Eli Mod - D18] (Eterna round: R97, puzzle: Exclusion 5) | MS2 coat protein | label 1 |

Then there is this sequence:
For this sequence, is measured apparent KD of MS2 coat protein 20 nM or higher? AACAGUCUGGAGGAUAUGCUGGAUUAAUAUCUGGCAGAAGGCUGGACAUGAGGAUCACCCAUGUAAAUACUACC [Omei Ex6 A2] (Eterna round: R97, puzzle: Exclusion 6) label 1
